The binders listed here are annotated with their pKd.
- test.target: T1, TOFU-6 RRM domain (TOFU-6^RRM, residues 2-92) (C. elegans, UniProt Q09293 2-92)
- T1 construct: TOFU-6, C. elegans, RRM domain, residues 2-92; source: E. coli BL21(DE3), purified (Ni-NTA, TEV cleavage, second Ni-NTA); not shown: His tag (inferred from the Ni-NTA purification), N-terminal, cleaved
- T1 sequence (looked up): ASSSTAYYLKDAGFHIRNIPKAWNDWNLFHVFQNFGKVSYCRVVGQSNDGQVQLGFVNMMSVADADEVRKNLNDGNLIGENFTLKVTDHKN
- protocol.summary: ITC; MicroCal ITC200, 25 °C; 20 mM Tris pH 8.5, 200 mM NaCl or 20 mM MES pH 6.5, 200 mM NaCl; 1-2 mM protein or peptide in the syringe titrated into 30-50 μM protein in the cell; one-site model; Kd mean ± SD of a minimum of two experiments
- settings: both partners purified
Lab note: report pKd as minus log10 of the concentration in molar units, number only.

binder: PICS-1^RRM Y250A/Q251A (domain or fragment, C. elegans, UniProt O76616 201-282, looked up, Cloned into pET28-MHL; also called Y250A/Q251A(PICS-1RRM); source: E. coli BL21(DE3), purified (Ni-NTA, TEV cleavage, second Ni-NTA); not shown: His tag (inferred from the Ni-NTA purification), N-terminal, cleaved) QENMLKISGYPGMLNTFGIAQLLTPYRVNGITITGAQSAVVALENKFQVAAAVQDFNGKKLDRNHKLQVSSLVVSSPAVPLE
quantity.kind: pKd
value: 4.68

# input for lookup
pKd measured on PICS-1^RRM K246A/F247A (domain or fragment, C. elegans, UniProt O76616 201-282, looked up, Cloned into pET28-MHL; Some legends and the strain list print K245A/F246A for the transgene; also called K246A/F247A(PICS-1RRM); source: E. coli BL21(DE3), purified (Ni-NTA, TEV cleavage, second Ni-NTA); not shown: His tag (inferred from the Ni-NTA purification), N-terminal, cleaved) QENMLKISGYPGMLNTFGIAQLLTPYRVNGITITGAQSAVVALENAAQVYQAVQDFNGKKLDRNHKLQVSSLVVSSPAVPLE = 4.77
